These measurements were taken from patent US9695154B2.

# target: recombinant human SAE enzyme (Homo sapiens)
# Sequence (Q9UBT2 whole entry): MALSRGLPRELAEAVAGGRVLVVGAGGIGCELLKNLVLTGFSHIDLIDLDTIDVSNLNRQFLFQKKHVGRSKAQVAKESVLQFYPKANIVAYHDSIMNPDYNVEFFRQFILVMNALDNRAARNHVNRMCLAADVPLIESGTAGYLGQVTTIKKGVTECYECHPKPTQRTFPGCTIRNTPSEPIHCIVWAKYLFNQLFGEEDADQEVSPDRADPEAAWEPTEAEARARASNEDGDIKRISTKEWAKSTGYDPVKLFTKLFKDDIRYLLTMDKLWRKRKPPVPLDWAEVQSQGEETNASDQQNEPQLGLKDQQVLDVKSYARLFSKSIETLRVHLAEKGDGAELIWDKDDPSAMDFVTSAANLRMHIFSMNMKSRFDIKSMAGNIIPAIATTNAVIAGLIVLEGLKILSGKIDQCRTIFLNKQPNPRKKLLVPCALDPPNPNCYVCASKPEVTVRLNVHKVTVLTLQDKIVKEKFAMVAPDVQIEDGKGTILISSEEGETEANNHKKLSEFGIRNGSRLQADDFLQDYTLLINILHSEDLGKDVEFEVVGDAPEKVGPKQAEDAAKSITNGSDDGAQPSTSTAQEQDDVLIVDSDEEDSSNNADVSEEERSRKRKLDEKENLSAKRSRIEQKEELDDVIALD
# Sequence (Q9UBE0 whole entry partner): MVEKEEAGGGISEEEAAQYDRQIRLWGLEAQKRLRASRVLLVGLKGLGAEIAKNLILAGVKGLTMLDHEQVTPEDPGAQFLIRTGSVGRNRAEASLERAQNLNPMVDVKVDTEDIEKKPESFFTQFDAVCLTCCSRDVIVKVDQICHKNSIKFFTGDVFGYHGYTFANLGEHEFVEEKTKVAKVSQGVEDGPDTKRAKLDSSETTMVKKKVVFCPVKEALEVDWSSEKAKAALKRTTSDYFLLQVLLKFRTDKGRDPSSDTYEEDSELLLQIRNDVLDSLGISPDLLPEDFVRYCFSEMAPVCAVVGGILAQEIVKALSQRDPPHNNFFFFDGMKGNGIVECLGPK
# measurement_description: SAE HTRF Enzyme Assay
# recorded_conditions: class symbols A-C
pIC50: −log10 of the molar value.
Reported pIC50 values are given for each entry in this list.

Recorded pIC50 for C=CC(=O)N(C)c1cccc(Cn2ccc(C(=O)c3cncnc3N[C@@H]3C[C@H](COS(N)(=O)=O)[C@@H](O)[C@@H]3F)n2)c1 , please?
6.00 to 7.00

Recorded pIC50 for CC(c1ccc(C(F)(F)F)o1)n1ccc(C(=O)c2cncnc2N[C@@H]2C[C@H](COS(N)(=O)=O)[C@@H](O)[C@@H]2F)c1 (single isomer, unassigned) [Compound I-357] , please?
> 8.00

Recorded pIC50 for NS(=O)(=O)OC[C@H]1C[C@@H](Nc2ncncc2C(=O)c2ccn(Cc3cccc(I)c3)n2)[C@@H](F)[C@@H]1O , please?
> 8.00

Recorded pIC50 for NS(=O)(=O)OC[C@H]1C[C@@H](Nc2ncncc2C(=O)c2ccn(Cc3cc(C(F)(F)F)ccc3Cl)n2)C[C@@H]1O , please?
> 8.00

Recorded pIC50 for CC1(C)CCC(Cn2ccc(C(=O)c3cncnc3N[C@@H]3C[C@H](COS(N)(=O)=O)[C@@H](O)C3)n2)O1 (mixture of isomers) , please?
6.00 to 7.00

Consider the additional molecule presented here.
Recorded pIC50 for NS(=O)(=O)OC[C@H]1C[C@@H](Nc2ncncc2C(=O)c2ccn(Cc3cccc(OC(F)F)c3)c2)[C@@H](F)[C@@H]1O , please?
> 8.00
